Origin of measurements: patent US8022205B2

Listed below: IC50 values for each entry.
Target: human PI3K(p110α/p85α) (Homo sapiens)
Sequence (P42336 whole entry): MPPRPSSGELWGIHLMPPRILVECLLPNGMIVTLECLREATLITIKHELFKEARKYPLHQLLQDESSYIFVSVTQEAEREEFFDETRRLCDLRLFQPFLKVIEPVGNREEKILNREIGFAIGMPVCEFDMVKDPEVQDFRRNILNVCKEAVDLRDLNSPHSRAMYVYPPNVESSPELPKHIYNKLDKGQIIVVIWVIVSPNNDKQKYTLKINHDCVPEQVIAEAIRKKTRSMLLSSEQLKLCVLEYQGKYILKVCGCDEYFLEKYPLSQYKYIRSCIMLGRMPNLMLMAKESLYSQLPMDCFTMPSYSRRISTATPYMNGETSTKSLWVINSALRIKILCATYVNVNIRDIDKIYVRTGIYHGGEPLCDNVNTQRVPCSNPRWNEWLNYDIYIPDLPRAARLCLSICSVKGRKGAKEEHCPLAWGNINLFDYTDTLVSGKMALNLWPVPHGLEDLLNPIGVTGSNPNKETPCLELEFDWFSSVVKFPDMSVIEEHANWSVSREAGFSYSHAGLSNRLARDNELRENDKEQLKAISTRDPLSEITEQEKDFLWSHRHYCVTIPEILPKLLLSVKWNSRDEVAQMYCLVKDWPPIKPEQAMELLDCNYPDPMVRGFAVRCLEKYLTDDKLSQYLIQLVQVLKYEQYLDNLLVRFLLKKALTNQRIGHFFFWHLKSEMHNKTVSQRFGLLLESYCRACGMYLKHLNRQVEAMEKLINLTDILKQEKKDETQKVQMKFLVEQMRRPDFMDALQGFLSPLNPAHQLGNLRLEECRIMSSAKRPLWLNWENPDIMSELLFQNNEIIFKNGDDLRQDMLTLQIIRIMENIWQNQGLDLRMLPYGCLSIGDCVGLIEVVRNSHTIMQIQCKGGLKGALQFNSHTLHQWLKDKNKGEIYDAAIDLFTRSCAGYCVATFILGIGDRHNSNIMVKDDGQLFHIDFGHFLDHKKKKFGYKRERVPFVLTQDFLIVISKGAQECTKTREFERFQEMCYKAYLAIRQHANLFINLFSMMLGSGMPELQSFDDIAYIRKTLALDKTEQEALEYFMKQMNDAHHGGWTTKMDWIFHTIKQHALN
Sequence (P27986 whole entry partner): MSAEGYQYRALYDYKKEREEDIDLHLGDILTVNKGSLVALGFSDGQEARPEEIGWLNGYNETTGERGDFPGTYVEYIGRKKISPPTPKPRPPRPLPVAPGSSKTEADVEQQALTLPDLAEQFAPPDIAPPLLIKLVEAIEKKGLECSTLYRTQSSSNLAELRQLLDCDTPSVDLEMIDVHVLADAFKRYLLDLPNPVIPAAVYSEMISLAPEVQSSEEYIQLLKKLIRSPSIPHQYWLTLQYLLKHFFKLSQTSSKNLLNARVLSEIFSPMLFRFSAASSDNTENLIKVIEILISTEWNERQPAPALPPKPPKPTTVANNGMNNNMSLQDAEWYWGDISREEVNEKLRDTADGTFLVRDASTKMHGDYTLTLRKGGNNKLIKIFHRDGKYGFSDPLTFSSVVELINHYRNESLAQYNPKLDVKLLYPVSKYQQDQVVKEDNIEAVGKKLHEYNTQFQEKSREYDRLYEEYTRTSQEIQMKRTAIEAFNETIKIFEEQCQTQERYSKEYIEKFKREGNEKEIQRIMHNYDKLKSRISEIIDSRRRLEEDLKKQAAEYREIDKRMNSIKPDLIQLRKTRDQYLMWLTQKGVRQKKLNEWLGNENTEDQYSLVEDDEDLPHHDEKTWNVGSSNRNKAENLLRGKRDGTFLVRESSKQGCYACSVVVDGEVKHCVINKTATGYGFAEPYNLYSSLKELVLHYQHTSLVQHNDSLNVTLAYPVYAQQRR
Assay: Measurement of PI3K inhibitory activity (AlphaScreen GST Detection Kit)
Assay type: biochemical
Details: 10 μM ATP, 4 μM PI(4,5)P2, read-out: Enzyme inhibitory activity (IC50, μM) PI3K α
Procedure: The inhibitory activity of compounds of the present invention represented by formula (I) were measured with human PI3K(p110α/p85α) prepared in a baculovirus expression system using the AlphaScreen GST Detection Kit (Perkin Elmer, Inc.). […]
Where a name gives a salt, the structure may show the parent alone.
Output spec: scalar in µM, unitless text.

Study these solved cases before continuing.
MOLECULE	ENDPOINT_NAME	RESULT_NUMBER
CN1CCN(Cc2ccc(N3CCc4c(-c5cnc(N)nc5)nc(N5CCOCC5)nc43)c(F)c2)CC1	IC50	0.24
Cc1cc(C(=O)N2CCOCC2)ccc1N1CCc2c(-c3cnc(N)nc3)nc(N3CCOCC3)nc21	IC50	0.092
Nc1ncc(-c2nc(N3CCOCC3)nc3c2CCN3c2ccc(C(=O)N3CCN(c4cccnc4)CC3)cc2)cn1	IC50	0.046
c1cc(N2CCc3c(-c4ccc5[nH]cnc5c4)nc(N4CCOCC4)nc32)ccn1	IC50	0.3

GET /values?item= Cc1ccc(C(=O)N2CCOCC2)cc1N1CCc2c(-c3cnc(N)nc3)nc(N3CCOCC3)nc21 &system= human PI3K(p110α/p85α) (Homo sapiens) returns IC50: 0.22

Response field IC50 (human PI3K(p110α/p85α) (Homo sapiens)) for item CC(=O)N1CCc2c(-c3cnc(N)nc3)nc(N3CCOCC3)nc21 : 0.04

Reported human PI3K(p110α/p85α) (Homo sapiens) IC50 for item CN1CCN(c2cc(F)c(NC(=O)N3CCc4c(-c5cnc(N)nc5)nc(N5CCOCC5)nc43)c(F)c2)CC1 was 0.006

Case Nc1ncc(-c2nc(N3CCOCC3)nc3c2CCN3c2ccc(C(=O)N3CCNCC3)nc2)cn1 , human PI3K(p110α/p85α) (Homo sapiens), IC50 recorded as 0.008

Response field IC50 (human PI3K(p110α/p85α) (Homo sapiens)) for item CS(=O)(=O)Nc1cccc(N2CCc3c(-c4cccc(O)c4)nc(N4CCOCC4)nc32)c1 [Example A-48, trifluoroacetic acid salt] : 0.02

Item CN(C)CCOC(=O)c1cccc(-c2nc(N3CCOCC3)nc3c2CCN3c2cccnc2)c1 ; assay system human PI3K(p110α/p85α) (Homo sapiens); IC50 reported as 0.33

Summary line: Nc1ncc(-c2nc(N3CCOCC3)nc3c2CCN3c2ccc(C(=O)N3CCN(c4ccncc4)CC3)cc2)cn1 , human PI3K(p110α/p85α) (Homo sapiens), reported IC50 = 0.006

Here CN1CCN(Cc2ccc3cc(N4CCc5c(-c6cnc(N)nc6)nc(N6CCOCC6)nc54)ccc3c2)CC1 was tested on human PI3K(p110α/p85α) (Homo sapiens), and its IC50 came to 0.16

// molecule CCN1CCN(C(=O)c2ccc(N3CCc4c(-c5cnc(N)nc5)nc(N5CCOCC5)nc43)c(F)c2)CC1 , assay human PI3K(p110α/p85α) (Homo sapiens), IC50 value: 0.11

Case Oc1cc(-c2nc(N3CCOCC3)nc3c2CCN3c2ccncc2)ccc1F [Example A-32, trifluoroacetic acid salt] , human PI3K(p110α/p85α) (Homo sapiens), IC50 recorded as 0.24

# COc1ncc(-c2nc(N3CCOCC3)nc3c2CCN3c2cccnc2)c(OC)n1 with human PI3K(p110α/p85α) (Homo sapiens): IC50 is 0.26
